biological target: PI3K-γ (Homo sapiens, UniProt P48736); test: PI3K-gamma fluorescence polarization assay; conditions: read-out: IC50 PI3Kγ
Sequence (P48736 whole entry, species assumed): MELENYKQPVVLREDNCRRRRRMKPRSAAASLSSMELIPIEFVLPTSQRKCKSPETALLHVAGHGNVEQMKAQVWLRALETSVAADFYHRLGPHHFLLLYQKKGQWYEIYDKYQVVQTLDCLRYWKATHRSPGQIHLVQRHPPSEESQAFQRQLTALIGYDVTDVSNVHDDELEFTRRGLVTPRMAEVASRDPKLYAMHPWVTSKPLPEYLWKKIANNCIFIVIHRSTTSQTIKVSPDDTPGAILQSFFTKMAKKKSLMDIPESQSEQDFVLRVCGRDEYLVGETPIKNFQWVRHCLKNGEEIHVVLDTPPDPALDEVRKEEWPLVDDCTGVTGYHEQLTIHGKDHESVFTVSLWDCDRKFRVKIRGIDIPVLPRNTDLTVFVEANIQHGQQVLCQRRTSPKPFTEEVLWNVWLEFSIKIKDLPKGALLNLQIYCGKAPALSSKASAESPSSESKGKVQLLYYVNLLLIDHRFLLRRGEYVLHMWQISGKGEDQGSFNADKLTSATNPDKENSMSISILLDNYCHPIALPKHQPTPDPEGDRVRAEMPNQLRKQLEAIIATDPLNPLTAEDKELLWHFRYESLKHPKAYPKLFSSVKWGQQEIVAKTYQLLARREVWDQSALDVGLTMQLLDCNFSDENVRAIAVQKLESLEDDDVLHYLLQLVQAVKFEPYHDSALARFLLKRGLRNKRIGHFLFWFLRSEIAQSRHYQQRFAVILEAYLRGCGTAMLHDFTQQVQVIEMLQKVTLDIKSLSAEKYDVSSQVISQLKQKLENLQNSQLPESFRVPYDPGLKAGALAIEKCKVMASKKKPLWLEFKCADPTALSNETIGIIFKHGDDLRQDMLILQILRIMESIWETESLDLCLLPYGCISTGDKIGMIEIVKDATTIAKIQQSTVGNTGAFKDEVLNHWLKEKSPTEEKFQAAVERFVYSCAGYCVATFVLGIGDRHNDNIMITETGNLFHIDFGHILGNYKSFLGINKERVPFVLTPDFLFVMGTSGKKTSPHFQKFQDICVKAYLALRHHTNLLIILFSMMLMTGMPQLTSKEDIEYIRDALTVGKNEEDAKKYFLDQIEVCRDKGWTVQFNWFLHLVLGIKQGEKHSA
The following molecules are shown together with reported IC50 values.
Please give a number only; it is taken to be in nM.

Sure, the documented IC50 for C[C@@H]1COCCN1c1nc(-c2ccc(NC(=O)Nc3ccc(N4CCN(C)CC4)cc3)cc2)nc(N2CCOC[C@H]2C)n1 is 1690

Others:
Value of measured IC50 for the entry C[C@H]1COCCN1c1nc(-c2ccc(NC(=O)Nc3ccc(C(=O)N4CCN(C)CC4)cc3)cc2)nc(N2CCOC[C@@H]2C)n1 : 38

Quick note, IC50 for Cc1ccc(-c2nc(-c3ccc(NC(=O)Nc4cccc(C(=O)NCCN(C)C)c4)cc3)nc(N3CCOCC3)n2)cc1 landed at 718

====

biological target: UniProt P42345; experiment: mTOR kinase assay (DELFIA format, purified enzyme); format: biochemical; settings: read-out: IC50 mTOR
Sequence (P42345 1360-2549 limits assumed): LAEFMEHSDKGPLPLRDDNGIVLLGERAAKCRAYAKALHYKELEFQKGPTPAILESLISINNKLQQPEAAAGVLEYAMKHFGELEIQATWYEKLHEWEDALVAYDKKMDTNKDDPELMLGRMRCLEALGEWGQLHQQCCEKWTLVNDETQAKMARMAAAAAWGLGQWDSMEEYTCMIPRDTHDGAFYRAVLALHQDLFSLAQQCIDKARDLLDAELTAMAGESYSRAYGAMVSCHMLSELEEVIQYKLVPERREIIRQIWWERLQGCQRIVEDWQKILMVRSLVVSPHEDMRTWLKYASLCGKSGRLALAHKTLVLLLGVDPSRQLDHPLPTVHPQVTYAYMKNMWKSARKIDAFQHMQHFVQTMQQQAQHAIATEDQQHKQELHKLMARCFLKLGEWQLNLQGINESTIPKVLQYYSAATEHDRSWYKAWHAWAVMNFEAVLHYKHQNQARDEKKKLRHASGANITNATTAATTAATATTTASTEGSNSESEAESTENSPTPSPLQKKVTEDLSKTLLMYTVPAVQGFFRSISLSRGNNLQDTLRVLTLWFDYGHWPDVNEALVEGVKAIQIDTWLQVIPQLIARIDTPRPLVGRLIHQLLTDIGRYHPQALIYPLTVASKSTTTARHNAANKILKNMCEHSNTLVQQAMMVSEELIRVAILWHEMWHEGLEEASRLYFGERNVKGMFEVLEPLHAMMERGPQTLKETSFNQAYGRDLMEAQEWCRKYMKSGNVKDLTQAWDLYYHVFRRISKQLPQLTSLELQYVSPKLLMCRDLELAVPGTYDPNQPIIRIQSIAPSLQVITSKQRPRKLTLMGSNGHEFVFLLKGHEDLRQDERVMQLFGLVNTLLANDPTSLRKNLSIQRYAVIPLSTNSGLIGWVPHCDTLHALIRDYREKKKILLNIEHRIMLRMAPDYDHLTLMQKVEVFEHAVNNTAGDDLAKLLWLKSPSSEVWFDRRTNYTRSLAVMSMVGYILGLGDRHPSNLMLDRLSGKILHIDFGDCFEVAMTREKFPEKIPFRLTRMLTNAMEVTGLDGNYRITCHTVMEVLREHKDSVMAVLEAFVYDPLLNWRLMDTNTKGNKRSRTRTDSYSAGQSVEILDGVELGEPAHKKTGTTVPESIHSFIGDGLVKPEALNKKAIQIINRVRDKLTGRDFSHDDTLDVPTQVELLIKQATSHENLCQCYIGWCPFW
Property label: IC50 (nM)
Report the value in nM with no unit label.

Measured on UniProt P42345, CCN(CC)C(=O)[n+]1ccc(NC(=O)Nc2ccc(-c3nc(N4CCOCC4)nc(N4C5CCC4COC5)n3)cc2)cc1 [Example 201] has a documented IC50 of 0.9

The compound CCCCc1nc(-c2ccc(NC(=O)Nc3ccc(CN4CCN(C)CC4)cc3)cc2)nc(N2CCOCC2)n1 [Example 254] , when measured on UniProt P42345, yielded IC50 of 17

Noted IC50 for CN1CCN(C(=O)c2ccc(NC(=O)Nc3ccc(-c4nc(N5CCCCC5)nc(N5CCOCC5)n4)cc3)cc2)CC1 [Example 597] , tested on UniProt P42345: 11

For the compound O=C(Nc1ccc(-c2nc(NCC3CCNCC3)nc(N3CC4CCC(C3)O4)n2)cc1)Nc1cccnc1 [Example 169] , the measured IC50 on UniProt P42345 was 8.3

The compound O=C1CCN(c2nc(-c3ccc(NC(=O)Nc4ccncc4)cc3)nc(N3CC4CCC(C3)O4)n2)CC1 [Example 115] , tested on UniProt P42345, showed IC50 of 3.2

Bench note, UniProt P42345: Cc1cc(NC(=O)Nc2ccc(-c3nc(N4CCOCC4)nc(N4CC5CCC4CO5)n3)cc2)n(C)n1 (stereo not drawn) [Example 808] , IC50 reads 260

Tested system UniProt P42345; IC50 recorded for CCCCc1nc(-c2ccc(NC(=O)Nc3ccc(C(=O)NC4CCN(C)CC4)cc3)cc2)nc(N2CCOCC2)n1 [Example 272] was 30

UniProt P42345 data for Cc1ccc(-c2nc(-c3ccc(NC(=O)Nc4ccc(C(=O)N5CCCCC5)cc4)cc3)nc(N3CCOCC3)n2)cc1 [Example 555] ; its IC50: 405

====

Measured IC50 accompanies every entry in the list below.
target: PI3K-γ (Homo sapiens, UniProt P48736); test: PI3K-gamma fluorescence polarization assay; conditions: read-out: IC50 PI3Kγ
Answer format: numeric, nM implied, no suffix.

PI3K-γ (Homo sapiens, UniProt P48736) assay, compound CC(O)c1ccc(NC(=O)Nc2ccc(-c3nc(N4CCOCC4)nc(N4CCOC[C@@H]4C)n3)cc2)cc1 (some centres unmarked) , recorded IC50 = 133

Continuing:
Noted IC50 for CCc1nc(-c2ccc(NC(=O)Nc3ccc(OCCN(C)C)cc3)cc2)nc(N2CCOCC2)n1 , tested on PI3K-γ (Homo sapiens, UniProt P48736): 81

====

target: PI3K-γ (Homo sapiens); assay: PI3K-gamma fluorescence polarization assay; details: read-out: IC50 PI3Kγ
Property label: pIC50
The scale used: pIC50 is minus the common logarithm of the concentration in molar units.

The measured pIC50 associated with CCS(=O)(=O)N1CCN(c2nc(-c3ccc(NC(=O)Nc4ccncc4)cc3)nc(N3CCOCC3)n2)CC1 reads 6.99

The molecule listed as O=C(Nc1ccncc1)Nc1ccc(-c2nc(NCC3CNC3)nc(N3CCOCC3)n2)cc1 shows pIC50 equal to 6.95

Would you kindly look at the next entry?
Form field pIC50, entry C[C@H]1COCCN1c1nc(-c2ccc(NC(=O)Nc3ccc(C(=O)N4CCNCC4)cc3)cc2)nc(N2C3CCC2COC3)n1 : 7.16

====

target: UniProt:P48736; experiment: PI3K-gamma fluorescence polarization assay; conditions: read-out: IC50 PI3Kγ
Property label: pIC50
As a rule, pIC50 stands for the negative log10 of the concentration, concentration in M.

Solved cases below.
Recorded result, Cc1ccc(-c2nc(-c3ccc(NC(=O)Nc4ccc(C(=O)N(C)CCN(C)C)cc4)cc3)nc(N3CCOCC3)n2)cc1 [Example 338] , pIC50: 7.11

# compound CCS(=O)(=O)N1CCN(c2nc(-c3ccc(NC(=O)Nc4ccc(C(=O)O)cc4)cc3)nc(N3CCOCC3)n2)CC1 [Example 652] ; its pIC50 = 7.07

Shifting focus to the compound that follows.
Looking up O=C(Nc1ccncc1)Nc1ccc(-c2nc(N3CCOCC3)nc(N3CCC4(CC3)OCCO4)n2)cc1 [Example 130] , I found its pIC50 recorded as 6.88

====

target: PI3K-α (Homo sapiens, UniProt P42336); experiment: PI3K-alpha fluorescence polarization assay; settings: read-out: IC50 PI3Kα
Sequence (P42336 whole entry, species assumed): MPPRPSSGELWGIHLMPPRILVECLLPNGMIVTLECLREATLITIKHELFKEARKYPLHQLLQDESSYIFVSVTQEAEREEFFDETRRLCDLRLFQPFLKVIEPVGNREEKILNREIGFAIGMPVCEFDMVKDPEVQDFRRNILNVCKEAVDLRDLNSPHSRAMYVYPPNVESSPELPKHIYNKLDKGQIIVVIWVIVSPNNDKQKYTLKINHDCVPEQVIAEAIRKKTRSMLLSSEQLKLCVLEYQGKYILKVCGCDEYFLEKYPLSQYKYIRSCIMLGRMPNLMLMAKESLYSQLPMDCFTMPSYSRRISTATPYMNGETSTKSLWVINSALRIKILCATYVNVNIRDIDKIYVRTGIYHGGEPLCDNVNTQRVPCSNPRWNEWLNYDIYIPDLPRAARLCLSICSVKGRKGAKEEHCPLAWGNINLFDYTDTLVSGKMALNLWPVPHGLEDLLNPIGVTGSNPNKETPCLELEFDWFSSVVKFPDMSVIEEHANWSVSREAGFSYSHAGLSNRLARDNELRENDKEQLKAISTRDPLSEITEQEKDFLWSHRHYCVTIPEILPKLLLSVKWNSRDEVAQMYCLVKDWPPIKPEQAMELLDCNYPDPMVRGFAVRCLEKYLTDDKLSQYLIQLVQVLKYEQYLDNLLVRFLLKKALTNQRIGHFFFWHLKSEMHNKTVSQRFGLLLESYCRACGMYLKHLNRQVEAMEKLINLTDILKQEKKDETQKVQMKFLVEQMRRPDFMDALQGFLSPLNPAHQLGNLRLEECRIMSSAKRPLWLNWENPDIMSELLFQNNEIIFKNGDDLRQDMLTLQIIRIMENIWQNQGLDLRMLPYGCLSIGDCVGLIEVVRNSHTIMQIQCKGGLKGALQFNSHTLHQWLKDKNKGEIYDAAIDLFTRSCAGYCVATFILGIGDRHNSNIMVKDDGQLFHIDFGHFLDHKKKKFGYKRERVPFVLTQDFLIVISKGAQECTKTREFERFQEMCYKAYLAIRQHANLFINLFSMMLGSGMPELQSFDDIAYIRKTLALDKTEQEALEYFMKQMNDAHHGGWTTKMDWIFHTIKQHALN
Sequence (P27986 whole entry partner, species assumed): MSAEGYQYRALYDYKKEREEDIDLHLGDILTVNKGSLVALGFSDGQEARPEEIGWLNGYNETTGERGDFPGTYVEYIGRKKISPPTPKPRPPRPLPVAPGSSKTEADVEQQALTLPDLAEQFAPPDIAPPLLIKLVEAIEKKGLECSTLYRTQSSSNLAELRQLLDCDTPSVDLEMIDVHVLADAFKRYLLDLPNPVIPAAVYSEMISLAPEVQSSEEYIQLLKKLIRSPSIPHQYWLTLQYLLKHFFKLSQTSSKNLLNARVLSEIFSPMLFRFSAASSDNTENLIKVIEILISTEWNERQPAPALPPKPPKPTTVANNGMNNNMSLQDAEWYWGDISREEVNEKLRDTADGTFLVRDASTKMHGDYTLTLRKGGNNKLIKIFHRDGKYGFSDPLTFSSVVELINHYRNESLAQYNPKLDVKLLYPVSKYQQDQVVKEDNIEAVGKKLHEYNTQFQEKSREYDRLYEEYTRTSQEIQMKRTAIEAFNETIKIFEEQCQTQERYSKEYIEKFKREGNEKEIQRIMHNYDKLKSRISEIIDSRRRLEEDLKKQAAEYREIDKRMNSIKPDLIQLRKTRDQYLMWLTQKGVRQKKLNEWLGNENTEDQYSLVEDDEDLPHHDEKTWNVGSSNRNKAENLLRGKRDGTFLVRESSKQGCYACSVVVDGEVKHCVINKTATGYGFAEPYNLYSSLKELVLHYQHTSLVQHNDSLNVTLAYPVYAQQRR
Reported log10(IC50) values for a set of compounds
// do not treat as linear: log10 of IC50, unit nM

Observe how each entry below is paired with its result.
Field log10(IC50) (entry COC(=O)c1cccc(NC(=O)Nc2ccc(-c3nc(-c4ccccc4)nc(N4CCOCC4)n3)cc2)c1 ) reads 2.98

According to the records, this compound O=C(Nc1ccc(-c2nc(Nc3ccc(N4CCNCC4)cc3)nc(N3CC4CCC(C3)O4)n2)cc1)NC1CC1 displays log10(IC50) of 2.92

Recorded log10(IC50) (compound CC(C)N1CCN(C(=O)c2ccc(NC(=O)Nc3ccc(-c4nc(N5CCCC5)nc(N5CCOCC5)n4)cc3)cc2)CC1 ): 0.93

New cases:
Notebook: CCN1CCN(C(=O)c2ccc(NC(=O)Nc3ccc(-c4nc(N5CCOCC5)nc(N5CCN(C(=O)N(C)C)CC5)n4)cc3)cc2)CC1 , log10(IC50) read as 0.81

Measured log10(IC50), COc1ccc(NC(=O)Nc2ccc(-c3nc(N4CCOCC4)nc(N4CCOCC4)n3)cc2)cc1 : 1.00

====

target: UniProtKB P48736; assay: PI3K-gamma fluorescence polarization assay; conditions: read-out: IC50 PI3Kγ
Label key: MET means IC50 under 300 nM; NOT MET means IC50 of 300 nM or more.

Item O=C(Nc1ccc(-c2nc(N3CCOCC3)nc(N3C4CCC3COC4)n2)cc1)Nc1cccnc1 : IC50 beneath 300 nM, strictly?
MET

Quick check: does CCCCc1nc(-c2ccc(NC(=O)Nc3ccc(CO)cc3)cc2)nc(N2CCOCC2)n1 have IC50 under 300 nM?
MET

---
IC50 strictly < 300 nM for this compound? CC(C)N1CCCN(c2nc(-c3ccc(NC(=O)Nc4ccc(C(=O)O)cc4)cc3)nc(N3CCOCC3)n2)CC1
NOT MET

Identify whether the compound CCN1CCN(C(=O)Nc2ccc(NC(=O)Nc3ccc(-c4nc(N5CCOCC5)nc(N5CCOCC5)n4)cc3)cc2)CC1 records IC50 below 300 nM.
MET

In plain terms, does O=C(Nc1ccccc1)Nc1ccc(-c2nc(N3CCOCC3)nc(N3C4CCC3CC(O)C4)n2)cc1 (stereo not drawn) come in under 300 nM for IC50?
MET

Problem: For the compound CN1CCN(c2ccc(NC(=O)Nc3ccc(-c4nc(NS(=O)(=O)c5ccccc5)nc(N5CCOCC5)n4)cc3)cc2)CC1 , is IC50 under 300 nM?
MET

Dear reviewer, please state whether C[C@H]1COCCN1c1nc(-c2ccc(NC(=O)Nc3ccc(C(=O)O)cc3)cc2)nc(N2CCOCC2)n1 has IC50 strictly beneath 300 nM.
MET

# check: IC50 < 300 nM for C[C@@H]1COCCN1c1nc(-c2ccc(NC(=O)Nc3ccc(C(=O)N(C)C)cc3)cc2)nc(N2CCOC[C@H]2C)n1
NOT MET

Strictly below 300 nM in IC50? O=C(Nc1ccncc1)Nc1ccc(-c2nc(N3CCOCC3)nc(N3C4COCC3[C@H](O)C4)n2)cc1 (stereo partly drawn)
MET

Strictly below 300 nM: is that where IC50 of CCCCc1nc(-c2ccc(NC(=O)Nc3ccc(C(=O)Nc4ccc(N5CCN(C)CC5)cc4)cc3)cc2)nc(N2CCOCC2)n1 sits?
MET

Quick check: does C[C@@H]1COCCN1c1nc(-c2ccc(NC(=O)Nc3ccc(OCCN(C)C)cc3)cc2)nc(N2C3CCC2COC3)n1 have IC50 under 300 nM?
NOT MET

Lab note: confirm whether the reported IC50 for this compound is below 300 nM, equality not counting. compound: CN1CCN(c2ccc(Nc3nc(-c4ccc(NC(=O)NCCF)cc4)nc(N4CC5CCC(C4)O5)n3)cc2)CC1
NOT MET
